system: recombinant CETP (Homo sapiens)
Construct: purchased Roar, New York, NY, USA RB-RPAK
assay method text: In vitro CETP inhibitory assay (BODIPY-CE fluorescence assay, CETP RP Activity Assay Kit)
Type: biochemical
cond: CETP inhibition, eight-point titration, each concentration tested three times
outcome measure: IC50 (µM)

- molecule: "CCOC(=O)CCCOc1ccc(-c2csc(CN(Cc3ccc(F)cc3)c3ccc(OC)c(OC)c3)n2)cc1"
  system: "recombinant CETP (Homo sapiens)"
  IC50, µM: 8.4

1. COc1ccc(-c2csc(CN(Cc3ccc(F)cc3)c3ccc(OC)c(OC)c3)n2)cc1
2. COc1ccc(N(Cc2ccc(F)cc2)Cc2nc(-c3ccc4ccccc4c3)cs2)cc1OC
3. Fc1ccc(CN(Cc2ncc(-c3ccccc3)o2)c2cccc(Oc3ccccc3)c2)cc1 [Compound 17a]
-- ask Ranking field: IC50; order: falling. Lab note: final answer is the ordered label list.
-- reply 3, 1, 2
(3: 25.7 µM, 1: 11 µM, 2: 3.51 µM)

###

system: recombinant CETP (Homo sapiens, UniProt P11597)
Construct: purchased Roar, New York, NY, USA RB-RPAK
Sequence (P11597 18-493): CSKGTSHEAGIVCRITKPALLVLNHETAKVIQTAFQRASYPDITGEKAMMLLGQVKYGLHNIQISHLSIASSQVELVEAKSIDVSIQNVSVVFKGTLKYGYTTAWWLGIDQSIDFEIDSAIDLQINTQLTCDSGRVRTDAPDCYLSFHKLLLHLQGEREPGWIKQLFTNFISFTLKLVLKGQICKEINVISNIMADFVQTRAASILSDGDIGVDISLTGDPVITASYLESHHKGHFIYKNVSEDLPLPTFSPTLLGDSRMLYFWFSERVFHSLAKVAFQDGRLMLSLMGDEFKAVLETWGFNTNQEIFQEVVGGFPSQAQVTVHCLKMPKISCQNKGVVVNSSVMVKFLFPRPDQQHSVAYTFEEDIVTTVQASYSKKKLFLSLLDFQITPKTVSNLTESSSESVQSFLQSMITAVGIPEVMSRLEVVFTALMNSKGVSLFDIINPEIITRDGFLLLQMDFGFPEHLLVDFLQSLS
assay method text: In vitro CETP inhibitory assay (BODIPY-CE fluorescence assay, CETP RP Activity Assay Kit)
Assay type: biochemical
cond: CETP inhibition, eight-point titration, each concentration tested three times
outcome measure: IC50 (µM)

Here are 2 molecules together with their reported answers.
- compound structure string: "COc1ccc(N(Cc2ccc(F)cc2)Cc2nc(-c3ccc(-c4cnn(C)c4)cc3)cs2)cc1OC"
  IC50 [µM]: 4.02
- compound structure string: "COc1ccc(N(Cc2ccc(F)cc2)Cc2nc(-c3ccc(-c4cccs4)cc3)cs2)cc1OC"
  IC50 [µM]: 6.03

I. COc1ccc(N(Cc2ccc(F)cc2)Cc2nc(-c3ccc(C#N)cc3)cs2)cc1OC
II. COc1ccc(N(Cc2ccc(F)cc2)Cc2nc(-c3ccc(-c4ccnn4C)cc3)cs2)cc1OC
-- ask Between I and II , whose measured IC50 reads higher? Respond using the label that marks the chosen record.
-- reply II

###

system: recombinant CETP (Homo sapiens, UniProt P11597)
Construct: purchased Roar, New York, NY, USA RB-RPAK
assay method text: In vitro CETP inhibitory assay (BODIPY-CE fluorescence assay, CETP RP Activity Assay Kit)
Assay type: biochemical
cond: CETP inhibition, eight-point titration, each concentration tested three times
pIC50: −log10 of the molar value.
outcome measure: pIC50

- compound structure string: "O=[N+]([O-])c1ccc(-c2csc(CN(Cc3ccc(F)cc3)c3ccc(-c4ccccc4)cc3)n2)cc1"
  outcome measure: "pIC50"
  readout value: 5.02

A. O=[N+]([O-])c1ccc(-c2csc(CN(Cc3ccc(F)cc3)c3cccc(-c4cccs4)c3)n2)cc1
B. COc1cccc(N(Cc2ccc(F)cc2)Cc2nc(-c3ccccc3)cs2)c1
C. COC(=O)CNc1ccc(-c2csc(CN(Cc3ccc(F)cc3)c3ccc(OC)c(OC)c3)n2)cc1
-- ask # ascending order, key=pIC50 Lab note: final answer is the ordered label list.
-- reply B, A, C

###

The following compounds are shown together with reported melting point values.

Here are 3 compounds together with their reported answers.
- compound: "Fc1ccc(CN(Cc2ncc(-c3ccccc3)o2)c2cccc(Oc3ccccc3)c2)cc1 [Compound 17a]"
  melting point: "81 to 82.4 °C"
- compound: "COC(=O)CNc1ccc(-c2csc(CN(Cc3ccc(F)cc3)c3ccc(OC)c(OC)c3)n2)cc1"
  melting point: "103.5 to 105.4 °C"
- compound: "O=[N+]([O-])c1ccc(-c2csc(CN(Cc3ccc(F)cc3)c3cccc(-c4cccs4)c3)n2)cc1"
  melting point: "143.9 to 148.8 °C"

-- ask Query (compound): COc1ccc(N(Cc2ccc(F)cc2)Cc2nc(-c3ccc(C)cc3)cs2)cc1OC ; field requested: melting point
-- reply 105.3 to 107 °C

-- ask Query (compound): COc1ccc(N(Cc2ccc(F)cc2)Cc2nc(-c3ccc(N)cc3)cs2)cc1OC ; field requested: melting point
-- reply 144.7 to 146.2 °C
